Cited source: PubChem BioAssay (NCI)

system: MDA-MB-468 breast; experiment: NCI-60 one-dose screen, 48 h (100 = growth as untreated, 0 = no growth, -100 = all killed); details: 10 µM unless noted
The panel holds about 83,000 compounds, 20% with a hit somewhere; the sample as a whole holds those more often. Active and inactive are the calls of the source. The calls were made as follows: active = growth percent below 10; inactive = the rest.
// reported growth per item
Reported Property: growth

[[record]]
compound = "N#CSCC1CC(O)(c2ccccc2)C(c2ccccc2)C(c2ccc(Cl)cc2)O1 (centres undefined)"
test_result = "-58.9% (active)"

[[record]]
compound = "N#C/C(=C\\c1ccc2ccccc2c1)c1cc2ccccc2[nH]1"
test_result = "30.5% (inactive)"

[[record]]
compound = "Cc1cc(=O)[nH]c(NN=C2CCCC2)n1"
test_result = "116% (inactive)"

[[record]]
compound = "CO[C@H]1C[C@@H]2CC[C@@H](C)[C@@](O)(O2)C(=O)C(=O)N2CCCC[C@H]2C(=O)O[C@H]([C@H](C)C[C@@H]2CC[C@@H](OP(C)(C)=O)[C@H](OC)C2)CC(=O)[C@H](C)/C=C(\\C)[C@@H](O)[C@@H](OC)C(=O)[C@H](C)C[C@H](C)\\C=C/C=C/C=C/1C"
test_result = "39.9% (inactive)"

[[record]]
compound = "O=C(Nc1ccccc1Cl)Oc1ccc(-c2ccccc2)cc1"
test_result = "115% (inactive)"

[[record]]
compound = "CC(C)c1ccccc1NC(=O)N1CCC(C(C)C)CC1"
test_result = "99.8% (inactive)"

[[record]]
compound = "COc1cccc(OC)c1C(=O)N[C@@H]1C(=O)N2[C@@H]1SC(C)(C)[C@@H]2C(=O)O"
test_result = "114% (inactive)"

[[record]]
compound = "O=C(CCl)N1c2cccc3cccc(c23)N(C(=O)CCl)C1c1cn(-c2ccccc2)nc1-c1cccc([N+](=O)[O-])c1"
test_result = "101% (inactive)"

[[record]]
compound = "O=C1c2ccccc2NC(c2cn(-c3ccccc3)nc2-c2cccnc2)N1Cc1ccccc1 (centres undefined)"
test_result = "102% (inactive)"

[[record]]
compound = "COc1ccc(/C=C\\c2cc(OC)c(OC)c(OC)c2)cc1OC(=O)c1cccc(Cn2cc(CCOC(=O)c3cccc(Cn4nnc5c4C(=O)c4ccccc4C5=O)c3)nn2)c1"
test_result = "5.62% (active)"

[[record]]
compound = "CC(=O)N(N=O)c1ccc([N+](=O)[O-])cc1Cl"
test_result = "29.7% (inactive)"

[[record]]
compound = "CN1c2ccccc2Sc2cc(C=C(C#N)C#N)ccc21"
test_result = "-24.4% (active)"

[[record]]
compound = "C#CC[C@@H]1C[C@]2(C)[C@H]3CC[C@@H]4[C@H]5C(C(=C)C)CC[C@]5(C(=O)NCCCCCCCCN)CC[C@@]4(C)[C@]3(C)CC[C@H]2C(C)(C)[C@H]1OC(C)=O (some centres undefined)"
test_result = "105% (inactive)"

[[record]]
compound = "Cc1ccc(-c2nc(C#N)c(S(=O)(=O)N(C)C)o2)cc1"
test_result = "81.6% (inactive)"

[[record]]
compound = "OCCCCc1nccc2c1[nH]c1ccccc12"
test_result = "92.9% (inactive)"

[[record]]
compound = "OCCNCCNC(Cc1ccc(Cl)cc1)c1ccccc1 (centres undefined)"
test_result = "86.4% (inactive)"

[[record]]
compound = "COc1cccc(-c2nn(-c3ccccc3)cc2-c2ccnc(NCCNC(=O)c3ccccc3)c2)c1"
test_result = "47.7% (inactive)"

[[record]]
compound = "Cc1nn2c(/C=C3/C(=O)Nc4cc(Cl)ccc43)c(-c3ccccc3)nc2s1"
test_result = "11% (inactive)"

[[record]]
compound = "COc1ccc(C(=O)c2ccc(C)cc2)c(OC)c1OC"
test_result = "20.5% (inactive)"

